Target Desc: UniProt Q96RI1
Sequence (Q96RI1 whole entry): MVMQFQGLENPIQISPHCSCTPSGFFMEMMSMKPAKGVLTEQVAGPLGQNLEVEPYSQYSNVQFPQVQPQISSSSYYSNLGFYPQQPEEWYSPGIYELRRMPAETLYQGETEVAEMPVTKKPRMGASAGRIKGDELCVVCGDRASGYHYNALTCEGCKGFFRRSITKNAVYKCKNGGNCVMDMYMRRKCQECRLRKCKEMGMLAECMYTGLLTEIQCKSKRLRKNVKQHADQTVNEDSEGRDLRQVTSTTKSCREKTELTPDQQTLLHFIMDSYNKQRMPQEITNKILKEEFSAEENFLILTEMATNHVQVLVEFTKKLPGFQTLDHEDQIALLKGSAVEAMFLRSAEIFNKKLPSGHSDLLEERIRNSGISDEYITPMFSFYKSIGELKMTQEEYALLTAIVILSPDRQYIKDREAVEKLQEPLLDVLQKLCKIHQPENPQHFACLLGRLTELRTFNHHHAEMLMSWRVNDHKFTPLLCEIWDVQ
Assay Protocol: Cell-free FRET assay, recruitment of the SRC1 peptide to FXR
Assay type: biochemical
Experimental Context: concentrations ranging from 1 nM to 100 μM; read-out: EC50 as FXR ligand in cell free FRET assay (Table 2 summary)
Test Readout: EC50

Recorded EC50 of C[C@H](CCNC(=O)OC/C=C/c1ccccc1)[C@H]1CCC2C3C(CC[C@@]21C)[C@@]1(C)CC[C@@H](O)CC1C[C@H]3O (stereo partly shown) [Compound (Ia)] , please.
~0.5 µM
